Target: T1, extracellular domain (ECD) of the human RNF43 protein, biotinylated (human, UniProt Q68DV7 24-197, biotin (EZ-link-NHS-PEG4-biotin), 1–2 biotin molecules per protein)
T1 chain: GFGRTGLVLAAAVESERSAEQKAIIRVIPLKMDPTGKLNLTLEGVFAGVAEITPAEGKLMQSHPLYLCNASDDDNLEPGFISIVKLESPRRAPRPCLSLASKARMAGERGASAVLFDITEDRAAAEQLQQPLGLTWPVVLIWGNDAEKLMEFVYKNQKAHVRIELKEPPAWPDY
Experiment: SPR; RNF43 immobilized
Ends that are not written are not given here. * marks the point of attachment. Biotin = O=C1N[C@H]2[C@H](CS[C@H]2CCCCC(=O)*)N1
readout_type: Kd (pM)
Numbers only here, please. The scale is pM.

Query: Query (binder): Biotin-EQCTSTQDLCHDYSHVCCWPLDCRWAVKYQWFWDCIG (designed binder, cysteine pairing not given here) [N-terminal biotinylated GUR-1.6.12.2] ; field requested: Kd
Reply: 500

Origin of measurements: paper PMC12464775
